System: Fusobacterium nucleatum
assay.notes: Inhibition of Fusobacterium nucleatum ATCC 25586 recombinant MGL R373A mutant expressed in Escherichia coli BL21 (DE3) assessed as decrease in signal intensity by measuring recovery ratio by 19F NMR based competition assay relative to wild type
Design: scale not given: the % may be the effect or the level left
The source made the active and inactive calls. The rule behind the calls is not given here.

# smiles.input, Activity
measured = [
    ("O=C(O)c1cncc(OCC(F)(F)F)c1", "50%"),
    ("O=C(O)c1ccnc(OC(F)F)c1", "80%"),
    ("CC(C)(CC(=O)O)c1ccc(C(F)(F)F)cc1", "50%"),
    ("CC(C)(Cc1cccc(C(F)(F)F)c1)C(=O)O", "80%"),
    ("CCOC(=O)c1nc(-c2ccccc2F)no1", "80%"),
    ("CC(C)(C)OC(=O)N1CCC(CN)(Cc2ccc(F)cc2)CC1", "Active"),
    ("O=C(O)c1cn(-c2ccc(F)cc2)cn1", "80%"),
    ("CC(C)(C)OC(=O)N1CCC(C(=O)O)(c2ccc(C(F)(F)F)cc2)CC1", "Active"),
    ("O=C(O)c1cn(-c2ccc(C(F)(F)F)cc2)cn1", "80%"),
    ("CC(C)(Cc1ccc(C(F)(F)F)cc1)C(=O)O", "50%"),
    ("CC(C)(C)OC(=O)N1CCC(CN)(Cc2ccccc2F)CC1", "inactive"),
    ("O=C(O)c1cc(OC(F)(F)F)ccn1", "80%"),
    ("Nc1cc(F)c(OCC2CCC2)c(F)c1", "inactive"),
]

----------
System: Fusobacterium nucleatum
assay.notes: Inhibition of Fusobacterium nucleatum ATCC 25586 recombinant MGL K238A mutant expressed in Escherichia coli BL21 (DE3) assessed as decrease in signal intensity by measuring recovery ratio by 19F NMR based competition assay relative to wild type
Set-up: concentration or dose not given beside the values
Calls of active or inactive are those of the source. No cut-off for these calls is given here.

# compound, Activity
rows = [
    ("CC(C)(C)OC(=O)N[C@H]1CC[C@H](N2Cc3cccc(F)c3C2=O)CC1", "Active"),
    ("Cc1cccc2c(C(C(=O)O)C(F)(F)F)c[nH]c12 (configuration not stated)", "50%"),
    ("CC(C)(C)OC(=O)N1CCC(CN)(c2ccc(F)cc2)CC1", "50%"),
    ("O=C(O)c1cnn(-c2ccc(F)cc2)c1", "50%"),
    ("CC(C)(C)OC(=O)N1CCC(CN)(c2ccccc2F)CC1", "Active"),
    ("CC(C)(C)OC(=O)N1CCC(C(=O)O)(c2ccc(C(F)(F)F)cc2)CC1", "50%"),
    ("CC(C)(C)OC(=O)N1CCC(CN)(c2cccc(F)c2)CC1", "Active"),
    ("CC(C)(C)OC(=O)N[C@H]1CC[C@H](N2Cc3ccc(F)cc3C2=O)CC1", "Active"),
    ("O=C(O)c1cc(F)c(OCC2CC2)c(F)c1", "Active"),
    ("O=C(O)c1cn(-c2ccc(F)cc2)cn1", "Active"),
    ("O=C(O)c1ccc(OC(F)F)nc1", "Active"),
    ("O=C(O)c1cc(C(F)(F)F)nn1Cc1ccccc1", "Active"),
]

----------
System: Fusobacterium nucleatum
assay.notes: Inhibition of Fusobacterium nucleatum ATCC 25586 recombinant MGL R58A mutant expressed in Escherichia coli BL21 (DE3) assessed as decrease in signal intensity by measuring recovery ratio by 19F NMR based competition assay relative to wild type
Parameters: scale not given: the % may be the effect or the level left
test.readout: Activity

# smiles.input, test.readout, reported.result
data = [
    ("CCOC(=O)c1nc(-c2ccccc2F)no1", "Activity", "50%"),
    ("O=C(O)c1cc(F)c(OCC2CC2)c(F)c1", "Activity", "80%"),
    ("O=C(O)c1cnn(-c2ccc(F)cc2)c1", "Activity", "80%"),
    ("CC(C)(C)OC(=O)N1CCC(CN)(Cc2ccccc2C(F)(F)F)CC1", "Activity", "50%"),
    ("O=C(O)c1cn(-c2ccc(C(F)(F)F)cc2)cn1", "Activity", "50%"),
    ("O=C(O)c1ccnc(OC(F)F)c1", "Activity", "80%"),
]

----------
Tested on: Fusobacterium nucleatum
assay.notes: Inhibition of Fusobacterium nucleatum ATCC 25586 recombinant MGL Y111F mutant expressed in Escherichia coli BL21 (DE3) assessed as decrease in signal intensity by measuring recovery ratio by 19F NMR based competition assay relative to wild type
Parameters: concentration or dose not given beside the values
Activity values by entry

# compound, Activity
records = [
    ("O=C(O)c1cnn(-c2ccc(F)cc2)c1", "80%"),
    ("O=C(O)c1cc(F)c(OCC2CC2)c(F)c1", "80%"),
    ("O=C(O)c1cc(C(F)(F)F)nn1Cc1ccccc1", "50%"),
    ("CCOC(=O)c1nc(-c2ccc(F)cc2)no1", "50%"),
    ("O=C(O)c1cc(C(F)(F)F)nn1-c1ccccc1", "80%"),
    ("O=C(O)c1cn(-c2ccc(C(F)(F)F)cc2)cn1", "50%"),
    ("CC(C)(C)OC(=O)N1CCC(CN)(c2ccc(F)cc2)CC1", "50%"),
    ("CC(C)(Cc1ccc(C(F)(F)F)cc1)C(=O)O", "80%"),
    ("Cc1cccc2c(C(C(=O)O)C(F)(F)F)c[nH]c12 (stereo not given)", "50%"),
]

----------
Test system: Fusobacterium nucleatum
assay.notes: Inhibition of Fusobacterium nucleatum ATCC 25586 recombinant MGL R58K mutant expressed in Escherichia coli BL21 (DE3) assessed as decrease in signal intensity by measuring recovery ratio by 19F NMR based competition assay relative to wild type
Set-up: scale not given: the % may be the effect or the level left

# compound, Activity, %
data = [
    ("O=C(O)c1ccnc(OC(F)F)c1", 80),
    ("O=C(O)c1cc(F)c(OCC2CC2)c(F)c1", 50),
    ("O=C(O)c1cn(-c2ccccc2F)cn1", 80),
    ("O=C(O)c1ccc(OC(F)F)nc1", 50),
    ("O=C(O)c1ccc(OCC(F)(F)F)cn1", 80),
    ("COCCOc1ccc(C(=O)O)cc1C(F)(F)F", 80),
    ("CC(C)(C)OC(=O)N1CCC(CN)(c2ccccc2F)CC1", 50),
    ("O=C(O)c1cn(-c2ccc(C(F)(F)F)cc2)cn1", 80),
    ("CCOC(=O)c1nc(-c2ccc(F)cc2)no1", 50),
    ("Cc1ccc2[nH]cc(C(C(=O)O)C(F)(F)F)c2c1 (stereo not given)", 80),
]

----------
System: Fusobacterium nucleatum
assay.notes: Inhibition of Fusobacterium nucleatum ATCC 25586 recombinant MGL R373A mutant expressed in Escherichia coli BL21 (DE3) assessed as decrease in signal intensity by measuring recovery ratio by 19F NMR based competition assay relative to wild type
Set-up: scale not given: the % may be the effect or the level left
The source made the active and inactive calls. The calls are words filed in the database; no cut-off is given here.

# molecule, test.system, Activity
measured = [
    ("CCOC(=O)c1nc(-c2ccc(F)cc2)no1", "Fusobacterium nucleatum", "80%"),
    ("O=C(O)c1ccc(OCC(F)(F)F)cn1", "Fusobacterium nucleatum", "80%"),
    ("O=C(O)c1cc(F)c(OCC2CC2)c(F)c1", "Fusobacterium nucleatum", "80%"),
    ("O=C(O)c1cc(C(F)(F)F)nn1Cc1ccccc1", "Fusobacterium nucleatum", "50%"),
    ("CC(C)(C)OC(=O)N[C@H]1CC[C@H](N2Cc3cccc(F)c3C2=O)CC1", "Fusobacterium nucleatum", "Active"),
    ("CC(C)(C)OC(=O)N[C@H]1CC[C@H](N2Cc3ccc(F)cc3C2=O)CC1", "Fusobacterium nucleatum", "Active"),
    ("CC(C)(C)OC(=O)N1CCC(CN)(Cc2ccc(C(F)(F)F)cc2)CC1", "Fusobacterium nucleatum", "Active"),
    ("COCCOc1ccc(C(=O)O)cc1C(F)(F)F", "Fusobacterium nucleatum", "80%"),
    ("Cc1ccc2[nH]cc(C(C(=O)O)C(F)(F)F)c2c1 (stereo not given)", "Fusobacterium nucleatum", "50%"),
]

----------
System: Fusobacterium nucleatum
assay.notes: Inhibition of Fusobacterium nucleatum ATCC 25586 recombinant MGL C113S mutant expressed in Escherichia coli BL21 (DE3) assessed as decrease in signal intensity by measuring recovery ratio by 19F NMR based competition assay relative to wild type
The source made the active and inactive calls. The calls are words filed in the database; no cut-off is given here.
test.readout: Activity

# molecule, reported.result
measured = [
    ("O=C(O)c1cnn(-c2ccc(F)cc2)c1", "Active"),
    ("O=C(O)c1cn(-c2ccccc2F)cn1", "Active"),
    ("COCCOc1ccc(C(=O)O)cc1C(F)(F)F", "50%"),
    ("O=C(O)c1cc(OC(F)(F)F)ccn1", "Active"),
    ("CC(C)(C)OC(=O)N1CCC(CN)(Cc2ccc(F)cc2)CC1", "50%"),
    ("O=C(O)c1ccc(OC(F)F)nc1", "Active"),
    ("CC(C)(C)OC(=O)N1CCC(C(=O)O)(c2ccc(C(F)(F)F)cc2)CC1", "50%"),
    ("O=C(O)c1cncc(OCC(F)(F)F)c1", "inactive"),
    ("CC(C)(CC(=O)O)c1ccc(F)cc1", "inactive"),
    ("CC(C)(CC(=O)O)c1ccc(C(F)(F)F)cc1", "Active"),
    ("O=C(O)c1cc(C(F)(F)F)nn1Cc1ccccc1", "inactive"),
    ("Nc1cc(F)c(OCC2CCC2)c(F)c1", "50%"),
    ("CC(C)(Cc1ccc(C(F)(F)F)cc1)C(=O)O", "Active"),
    ("O=C(O)c1ccnc(OC(F)F)c1", "50%"),
    ("CC(C)(C)OC(=O)N1CCC(CN)(c2cccc(F)c2)CC1", "Active"),
    ("CC(C)(C)OC(=O)N[C@H]1CC[C@H](N2Cc3ccc(F)cc3C2=O)CC1", "50%"),
    ("CCOC(=O)c1nc(-c2ccc(F)cc2)no1", "Active"),
    ("CC(C)(Cc1cccc(C(F)(F)F)c1)C(=O)O", "Active"),
    ("O=C(O)c1cn(-c2cccc(F)c2)cn1", "Active"),
    ("CC(C)(C)OC(=O)N1CCC(CN)(c2ccccc2F)CC1", "50%"),
    ("O=C(O)c1cn(-c2ccc(F)cc2)cn1", "50%"),
    ("O=C(O)c1ccnc(OC(F)(F)F)c1", "Active"),
    ("O=C(O)c1ccc(OCC(F)(F)F)cn1", "80%"),
    ("Cc1ccc2[nH]cc(C(C(=O)O)C(F)(F)F)c2c1 (centres undefined)", "inactive"),
]
